# Measurement Target: human thrombin (Homo sapiens)
# Construct: purified human thrombin, Enzyme Research Laboratories; purchased Enzyme Research Laboratories, South Bend, Indiana
# Assay Overview: Inhibition of amidase activity of thrombin (Kass), chromogenic substrate
# Assay type: biochemical
# Protocol Conditions: apparent association constant, mean over a range of concentrations
Observation Type: Enzyme Kass Human Thrombin (L/mol × 10^6)
Give your result in L/mol × 10^6 as a bare value.

Molecule | Measurement Target | Enzyme Kass Human Thrombin (L/mol × 10^6)
CC(C)N(CC(=O)NC(C=O)CCCNC(=N)N)C(=O)C1CCCCN1.Cl.Cl [Example 4, D--hPro--N(i--Pr)Gly--ArgH.2HCl] | human thrombin (Homo sapiens) | 9.7
Cl.Cl.N=C(N)NCCC[C@@H](C=O)NC(=O)CN(C(=O)[C@H]1CCCCN1)c1ccccc1 [Example 11, D--hPro--N(Ph)Gly--ArgH.2HCl] | human thrombin (Homo sapiens) | 16
Cl.Cl.N=C(N)NCCC[C@@H](C=O)NC(=O)CN(CCc1ccccc1)C(=O)[C@H]1CCCCN1 [Example 8] | human thrombin (Homo sapiens) | 87
Cl.Cl.NC(N)=NCCC[C@@H](C=O)NC(=O)CN(CCc1ccccc1)C(=O)[C@H]1CCCN1 [Example 18, D--Pro--N(CH2 CH2 Ph)Gly--ArgH.2HCl] | human thrombin (Homo sapiens) | 5.1
Cl.Cl.N=C(N)NCCC[C@@H](C=O)NC(=O)CN(CCCc1ccccc1)C(=O)[C@H]1CCCCN1 [Example 9, D--hPro--N(PhCH2 CH2 CH2)Gly--ArgH.2HCl] | human thrombin (Homo sapiens) | 24

Next:
Quick one: Enzyme Kass Human Thrombin for Cl.Cl.N=C(N)NCCC[C@@H](C=O)NC(=O)CN(CCCC(=O)O)C(=O)[C@H]1CCCCN1 [Example 14] ?
1.2

====

# System: human plasma
# Assay Overview: Human plasma anticoagulation, prothrombin time (PT)
# Protocol Conditions: concentration required to double the PT, linear extrapolation
# Protocol: Dog plasma and rat plasma is obtained from conscious mixed-breed hounds (either sex, Hazelton-LRE, Kalamazoo, Mich., U.S.A.) or from anesthetized male Sprague-Dawley rats (Harlan Sprague-Dawley, Inc., Indianapolis, Ind., U.S.A.) by venipuncture into 3.8 percent citrate. […] Coagulation assay procedures are as previously described. […] The prothrombin time (PT) is measured by adding 0.05 mL saline and 0.05 mL Thromboplastin-C reagent to 0.05 mL test plasma. […]
Square brackets hold non-standard residues; d marks the D form. Peptide text beside a SMILES is read from it. dPip = O=C(O)[C@H]1CCCCN1; Nphe = O=C(O)CNCc1ccccc1; NEtG = CCNCC(=O)O; Sar = CNCC(=O)O
The reader will find reported Human Plasma Anticoagulation 2 × Clotting time PT values listed item by item below.

For orientation, consider the following solved cases.
Molecule | Result
CN(CC(=O)N[C@H](C=O)CCCNC(=N)N)C(=O)[C@H]1CCCCN1.Cl.Cl [Example 1] (H-[dPip]-[Sar]-Arg-aldehyde) | 4,800 ng/mL
CCN(CC(=O)N[C@H](C=O)CCCNC(=N)N)C(=O)[C@H]1CCCCN1.Cl.Cl [Example 2] (H-[dPip]-[NEtG]-Arg-aldehyde) | 5,000 ng/mL
CC(C)N(CC(=O)NC(C=O)CCCNC(=N)N)C(=O)C1CCCCN1.Cl.Cl [Example 4, D--hPro--N(i--Pr)Gly--ArgH.2HCl] | 14,000 ng/mL
Cl.Cl.N=C(N)NCCC[C@@H](C=O)NC(=O)CN(C(=O)[C@H]1CCCCN1)c1ccccc1 [Example 11, D--hPro--N(Ph)Gly--ArgH.2HCl] | 3,100 ng/mL
Cl.Cl.N=C(N)NCCC[C@@H](C=O)NC(=O)CN(CCC(=O)O)C(=O)[C@H]1CCCCN1 [Example 13, D--hPro--N(CH2 CH2 COOH)Gly--ArgH.2HCl] | 27,000 ng/mL
Cl.Cl.N=C(N)NCCC[C@@H](C=O)NC(=O)CN(CCCC(=O)O)C(=O)[C@H]1CCCCN1 | 30,000 ng/mL
Cl.Cl.N=C(N)NCCC[C@@H](C=O)NC(=O)CN(Cc1ccccc1)C(=O)[C@H]1CCCCN1 [Example 7, D--hPro--N(Bn)Gly--ArgH.2HCl] (H-[dPip]-[Nphe]-Arg-aldehyde) | 4,400 ng/mL
CCCN(CC(=O)N[C@H](C=O)CCCNC(=N)N)C(=O)[C@H]1CCCCN1.Cl.Cl | 2,000 ng/mL

Next item in the queue.
Query (molecule): Cl.Cl.NC(N)=NCCC[C@@H](C=O)NC(=O)CN(CCc1ccccc1)C(=O)[C@H]1CCCN1 [Example 18, D--Pro--N(CH2 CH2 Ph)Gly--ArgH.2HCl] ; field requested: Human Plasma Anticoagulation 2 × Clotting time PT
3,900 ng/mL

// data source = patent US6090787A
